# TARGET_OR_SYSTEM: CA XIII (Homo sapiens, UniProt Q8N1Q1)
# Construct: made in house
# Sequence (Q8N1Q1 whole entry): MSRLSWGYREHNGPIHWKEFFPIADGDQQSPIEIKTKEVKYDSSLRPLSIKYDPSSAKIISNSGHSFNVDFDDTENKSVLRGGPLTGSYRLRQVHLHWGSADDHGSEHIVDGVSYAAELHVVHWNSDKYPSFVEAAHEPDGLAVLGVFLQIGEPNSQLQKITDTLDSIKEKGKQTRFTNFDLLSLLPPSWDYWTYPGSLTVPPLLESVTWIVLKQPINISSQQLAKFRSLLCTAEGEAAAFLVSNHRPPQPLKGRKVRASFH
# ASSAY_NAME: Isothermal titration calorimetry (ITC), CA XIII
# Format: binding
MEASURED_PARAMETER: Kd
Units required after the number.

Exam item: # lookup: Kd of NS(=O)(=O)c1ccc(/N=N/N2CCCCCC2)cc1 [Compound 31]
Marked response: 78 nM

---

# TARGET_OR_SYSTEM: CA VI (Homo sapiens, UniProt P23280)
# Construct: made in house
# Sequence (P23280 18-308): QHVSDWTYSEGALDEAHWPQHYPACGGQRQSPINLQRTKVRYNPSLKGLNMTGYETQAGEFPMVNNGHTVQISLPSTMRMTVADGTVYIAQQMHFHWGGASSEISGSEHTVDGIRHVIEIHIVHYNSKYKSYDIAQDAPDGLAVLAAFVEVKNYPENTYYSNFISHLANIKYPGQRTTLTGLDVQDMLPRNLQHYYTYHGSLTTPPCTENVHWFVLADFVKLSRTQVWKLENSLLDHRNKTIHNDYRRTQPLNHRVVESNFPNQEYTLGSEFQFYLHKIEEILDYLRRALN
# ASSAY_NAME: Fluorescent thermal shift assay (FTSA), CA VI
# Type: binding
# SETUP_CONDITIONS: FTSA, pH 7.0, 37 °C; read-out: Compound Dissociation Constants Kd for CA VI
pKd: −log10 of the molar value.
Think of 5 as a floor: if pKd stands on it or above, it is yes (1); beneath it, no (0).

Some solved entries appear below for comparison.
NS(=O)(=O)c1ccc(/N=N/SCCO)cc1
yes (1)
NS(=O)(=O)c1ccc(NCCC(=O)NN=C(c2ccccc2)c2ccccc2)cc1
no (0)

Exam item: Assess whether reported pKd for `NS(=O)(=O)c1ccc(NCCC(=O)N/N=C/c2ccc(Br)cc2)cc1` sits at 5 or higher.
Marked response: yes (1)

---

Each item that follows carries a reported Kd.
# TARGET_OR_SYSTEM: CA XII (Homo sapiens)
# Construct: made in house
# Sequence (O43570 30-289 limits assumed): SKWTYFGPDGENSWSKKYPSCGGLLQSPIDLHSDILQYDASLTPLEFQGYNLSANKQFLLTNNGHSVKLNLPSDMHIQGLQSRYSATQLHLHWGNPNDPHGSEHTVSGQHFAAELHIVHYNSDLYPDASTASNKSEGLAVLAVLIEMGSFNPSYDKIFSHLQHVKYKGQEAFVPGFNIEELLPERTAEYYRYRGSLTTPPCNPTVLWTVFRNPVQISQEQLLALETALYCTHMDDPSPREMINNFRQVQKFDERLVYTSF
# ASSAY_NAME: Fluorescent thermal shift assay (FTSA), CA XII
# Assay type: binding
# SETUP_CONDITIONS: FTSA, pH 7.0, 37 °C; read-out: Compound Dissociation Constants Kd for CA XII
Express it in µM; write the number only.

Worked examples, 5 compounds total:
NS(=O)(=O)c1ccc(NCCC(=O)N/N=C/c2ccc(Br)cc2)cc1 [Compound 14]
31.3
NNC(=O)CCNc1ccc(S(N)(=O)=O)cc1 [Compound 8]
33.3
Cc1cc(C)n(C(=O)CCNc2ccc(S(N)(=O)=O)cc2)n1 [Compound 18]
14.3
CC(=NNC(=O)CCNc1ccc(S(N)(=O)=O)cc1)c1ccccc1 [Compound 12]
33.3
Nc1nnc(CCNc2ccc(S(N)(=O)=O)cc2)s1 [Compound 10]
130

Exam item: Which Kd reading was recorded for the compound NS(=O)(=O)c1ccc(NCCC(=O)O)cc1 [Compound 3] ?
Marked response: 9.5

Exam item: // query Kd value for entry CCN(CC)/N=N/c1ccc(S(N)(=O)=O)cc1 [Compound 27]
Marked response: 0.588

Exam item: Recorded Kd of NS(=O)(=O)c1ccc(N2CCC(=O)NC2=S)cc1 [Compound 6] , please.
Marked response: 5.56

Exam item: Look up Kd for this compound: NS(=O)(=O)c1ccc(/N=N/N2CCCC2)cc1 [Compound 28]
Marked response: 1.81

Exam item: Could you share which Kd value was measured for CC(C)=NNC(=O)CCNc1ccc(S(N)(=O)=O)cc1 [Compound 11] ?
Marked response: 33.3

---

# TARGET_OR_SYSTEM: CA VII (Homo sapiens, UniProt P43166)
# Construct: made in house
# Sequence (P43166 whole entry): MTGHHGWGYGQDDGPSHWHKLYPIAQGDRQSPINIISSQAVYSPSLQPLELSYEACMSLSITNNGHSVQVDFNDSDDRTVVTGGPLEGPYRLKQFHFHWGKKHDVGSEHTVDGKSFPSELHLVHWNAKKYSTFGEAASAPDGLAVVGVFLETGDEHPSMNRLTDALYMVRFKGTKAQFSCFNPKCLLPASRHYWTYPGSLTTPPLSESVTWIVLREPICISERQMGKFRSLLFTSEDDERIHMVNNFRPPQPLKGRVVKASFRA
# ASSAY_NAME: Isothermal titration calorimetry (ITC), CA VII
# Type: binding
# SETUP_CONDITIONS: ITC, pH 7.0, 37 °C; read-out: Kd for CA VII by isothermal titration calorimetry (values in the brackets)
MEASURED_PARAMETER: Kd (nM)
Supply the numeric figure in nM, leaving out any unit text.

Exam item: Which value of Kd has been reported for `Cc1cc(C)n(C(=O)CCNc2ccc(S(N)(=O)=O)cc2)n1` in the records?
Marked response: 900

---

# TARGET_OR_SYSTEM: CA VI (Homo sapiens, UniProt P23280)
# Construct: made in house
# ASSAY_NAME: Fluorescent thermal shift assay (FTSA), CA VI
# Assay type: binding
# SETUP_CONDITIONS: FTSA, pH 7.0, 37 °C; read-out: Compound Dissociation Constants Kd for CA VI
MEASURED_PARAMETER: Kd (µM)
Form entry: value (µM) — number only.

Use these answered entries as a reference point.
Cc1ccc(C)n1NC(=O)CCNc1ccc(S(N)(=O)=O)cc1
25
NS(=O)(=O)c1ccc(/N=N/N2CCCC2)cc1
13.3
NS(=O)(=O)c1ccc(NCCC(=O)NN=Cc2ccc([N+](=O)[O-])cc2)cc1
25

Exam item: Could you share which Kd value was measured for NS(=O)(=O)c1ccccc1 [BSA, benzenesulfonamide] ?
Marked response: 14

Exam item: Please look up its Kd: `NS(=O)(=O)c1ccc(/N=N/N2CCOCC2)cc1`
Marked response: 11.8

Exam item: What does the data say about its Kd? Entry: `Nc1nnc(CCNc2ccc(S(N)(=O)=O)cc2)s1`
Marked response: 140

Exam item: Which Kd is listed for `NS(=O)(=O)c1ccc(NCCC(=O)NNC(=O)Nc2ccccc2)cc1` ?
Marked response: 7.1

Exam item: # Kd lookup, item `CN(C)c1ccc(/C=N/NC(=O)CCNc2ccc(S(N)(=O)=O)cc2)cc1`
Marked response: 50

---

# TARGET_OR_SYSTEM: CA VII (Homo sapiens, UniProt P43166)
# Construct: made in house
# ASSAY_NAME: Fluorescent thermal shift assay (FTSA), CA VII
# Format: binding
# SETUP_CONDITIONS: FTSA, pH 7.0, 37 °C; read-out: Compound Dissociation Constants Kd for CA VII
pKd: −log10 of the molar value.
Field: class. Source value: pKd. Ranges: bucket 1 = under 5, bucket 2 = from 5 up to 6, bucket 3 = 6 and over

NS(=O)(=O)c1ccc(/N=N/N2CCOCC2)cc1
bucket 3
CCN(CC)/N=N/c1ccc(S(N)(=O)=O)cc1
bucket 3
CCSC(=NS(=O)(=O)c1ccc(NCCC(=O)O)cc1)SCC
bucket 1
NS(=O)(=O)c1ccc(/N=N/SCCO)cc1
bucket 3

Exam item: Which category fits this record: `NNC(=O)CCNc1ccc(S(N)(=O)=O)cc1`
Marked response: bucket 1

Exam item: Hi, small favor: classify `NS(=O)(=O)c1ccc(/N=N/N2CCCC2)cc1` by its pKd when you get a moment.
Marked response: bucket 3

Exam item: Form field 'band' for `NS(=O)(=O)c1ccc(NCCC(=O)NN=C(c2ccccc2)c2ccccc2)cc1`
Marked response: bucket 1

Exam item: Which pKd band matches `NS(=O)(=O)c1ccc(N2CCC(=O)NC2=S)cc1` ?
Marked response: bucket 2

Exam item: Categorize the following entry: `CC(C)=NNC(=O)CCNc1ccc(S(N)(=O)=O)cc1`
Marked response: bucket 1

Exam item: Class? Entry: `CCSc1nnc(CCNc2ccc(S(N)(=O)=O)cc2)o1`
Marked response: bucket 2

Exam item: Field: class (pKd) — entry: `NS(=O)(=O)c1ccc(NCCC(=O)NN=Cc2ccc([N+](=O)[O-])cc2)cc1`
Marked response: bucket 1

Exam item: Form: Item = `NS(=O)(=O)c1ccc(NCCc2n[nH]c(=S)o2)cc1` ; Class = ?
Marked response: bucket 2

---

# TARGET_OR_SYSTEM: CA XIII (Homo sapiens, UniProt Q8N1Q1)
# Construct: made in house
# ASSAY_NAME: Fluorescent thermal shift assay (FTSA), CA XIII
# Type: binding
# SETUP_CONDITIONS: FTSA, pH 7.0, 37 °C; read-out: Compound Dissociation Constants Kd for CA XIII
MEASURED_PARAMETER: pKd
Bear in mind: pKd is minus log10 of a mol/L concentration; give just that figure.

Nc1ccc(S(N)(=O)=O)cc1 [Compound 1, 4-Aminobenzene-1-sulfonamide, reference compound]
4.00
NS(=O)(=O)c1ccc(/N=N/N2CCCCC2)cc1
7.18

Exam item: Which pKd is reported for this molecule? `NCCS/N=N/c1ccc(S(N)(=O)=O)cc1`
Marked response: 5.54

Exam item: Would you kindly share the measured pKd for `NS(=O)(=O)c1ccc(/N=N/N2CCCC2)cc1` ?
Marked response: 6.78

---

# TARGET_OR_SYSTEM: CA VI (Homo sapiens)
# Construct: made in house
# ASSAY_NAME: Fluorescent thermal shift assay (FTSA), CA VI
# Assay type: binding
MEASURED_PARAMETER: Kd (µM)
Enter your answer as a number in µM; do not include the unit.

NS(=O)(=O)c1ccc(/N=N/N2CCCCCC2)cc1
14.3

Exam item: What reported Kd corresponds to Nc1ccc(S(N)(=O)=O)cc1 [Compound 1, 4-Aminobenzene-1-sulfonamide, reference compound] on CA VI (Homo sapiens)?
Marked response: 56

---

# TARGET_OR_SYSTEM: CA II (Homo sapiens)
# Construct: made in house
# ASSAY_NAME: Isothermal titration calorimetry (ITC), CA II
# Assay type: binding
MEASURED_PARAMETER: pKd
The value called pKd is obtained by taking minus log10 of the concentration in mol/L.

Exam item: Find the measured pKd: item `NS(=O)(=O)c1ccc(/N=N/N2CCCCCC2)cc1` , target or system CA II (Homo sapiens).
Marked response: 7.40
